Target: T1, TipAL F123A/F126A (Streptomyces lividans, UniProt P0A4T9 1-253, F123A;F126A)
T1 sequence: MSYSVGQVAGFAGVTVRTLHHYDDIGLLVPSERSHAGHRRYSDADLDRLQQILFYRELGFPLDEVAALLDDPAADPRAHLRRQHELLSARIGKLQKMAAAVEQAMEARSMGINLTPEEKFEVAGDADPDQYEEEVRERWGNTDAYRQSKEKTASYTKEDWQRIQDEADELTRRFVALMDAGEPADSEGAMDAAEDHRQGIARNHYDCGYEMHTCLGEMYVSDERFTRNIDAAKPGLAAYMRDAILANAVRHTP
Assay: fluorescence polarization; thiostrepton 1:1; 20 mM Tris-HCl pH 7.5, 200 mM NaCl, 5% (v/v) glycerol, 298 K; 10 nM labeled DNA
Details: protein: recombinant; tags: His6 (pET-28a); chain copies: 2; label: 5'-carboxyfluorescein; blunt
VALUE TYPE: Kd (nM)
Numeric only. Scale: nM

[in] Quickly give me recorded Kd for ptipA (dsDNA) DNA 1: TTGCACCTCACGTCACGTGAGGAGGC DNA 2: GCCTCCTCACGTGACGTGAGGTGCAA
[out] 317
